Data provenance is patent US12077503B2.

- Test system: ducksalad (Heteranthera limosa)
- TEST METHOD NOTES: Test B flooded paddy test
- Assay type: in vivo
- TEST CONTEXT: Flood, 250 g ai/ha; 0 to 100 scale where 0 is no effect and 100 is complete control; 13 to 15 d
Tick t if Plant response rating, Ducksalad is 40 or greater. Tick f if Plant response rating, Ducksalad is less than 40.

Illustrative cases are given below, each with its answer.
# MOLECULE, TARGET OR SYSTEM, ANSWER LABEL
records = [
    ("O=C1NCC(c2ccsc2Cl)C1C(=O)Nc1ccccc1F (stereo not drawn)", "ducksalad (Heteranthera limosa)", "t"),
    ("CCC1(C(=O)Nc2cccc(F)c2F)C(=O)N(C)CC1c1cccc(C(F)(F)F)c1 (stereo not drawn)", "ducksalad (Heteranthera limosa)", "f"),
    ("C#Cc1cccc(C2CNC(=O)C2C(=O)Nc2cccc(F)c2F)c1 (racemic)", "ducksalad (Heteranthera limosa)", "t"),
    ("COCc1cccc(C2CNC(=O)C2C(=O)Nc2ccccc2F)c1 (stereo not drawn)", "ducksalad (Heteranthera limosa)", "t"),
    ("O=C1NCC(c2cccc(F)c2F)C1C(=O)Nc1ccc(F)cc1F (stereo not drawn)", "ducksalad (Heteranthera limosa)", "t"),
]

Decide: Plant response rating, Ducksalad of O=C1NCC(c2c(F)cccc2F)C1C(=O)Nc1ccccc1F (racemic) >= 40?
f
